Target: PD-1/PD-L1 (Homo sapiens (Human), UniProt Q9NZQ7)
Sequence (Q9NZQ7 19-238): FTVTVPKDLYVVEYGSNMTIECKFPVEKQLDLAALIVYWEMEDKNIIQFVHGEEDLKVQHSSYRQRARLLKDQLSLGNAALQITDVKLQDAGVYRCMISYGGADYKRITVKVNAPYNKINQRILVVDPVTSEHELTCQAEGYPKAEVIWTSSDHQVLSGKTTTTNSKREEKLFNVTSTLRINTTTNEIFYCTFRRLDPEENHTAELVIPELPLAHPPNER
Test: Homogeneous Time-Resolved Fluorescence (HTRF) binding assay
Conditions: CisBio kit #64CUS000C-1, read-out: IC50 of compounds binding to PD-1/PD-L1
measure: pIC50
Kindly note that pIC50 refers to -log10 of the concentration in mol/L and answer with the value alone.

Below are worked cases with known answers.
| compound | measure | measuredResult |
| --- | --- | --- |
| COc1cc(/C=C/c2cccc(-c3ccc(C(N)=O)cc3)c2C)cc(OC)c1CNc1cccc(O)c1C(=O)O [Compound 55] | pIC50 | 5.35 |
| Cc1c(C#Cc2ccc(CN3CCCC(O)C3C(=O)O)cc2F)cccc1-c1ccccc1 (stereo not drawn) [Compound 29] | pIC50 | 5.55 |
| Cc1c(/C=C/c2ccc(CN3CCC[C@H]3CO)cn2)cccc1-c1ccccc1 [Compound 16] | pIC50 | 6.23 |
| COC(=O)C1C(O)CCCN1Cc1c(OC)cc(/C=C/c2cccc(-c3ccccc3)c2C)cc1OC (stereo not drawn) [Compound 25] | pIC50 | 5.23 |
| COc1cc(/C=C/c2cncc(-c3ccc4c(c3)OCCO4)c2C)cc(OC)c1CN[C@@H](CO)C(=O)O [Compound 64] | pIC50 | 5.38 |
| COc1cc(/C=C/c2cccc(-c3ccccc3)c2C)cc(OC)c1CNC(C)(CO)C(=O)O (stereo not drawn) [Compound 44] | pIC50 | 7.23 |
| COc1nc(/C=C/c2cccc(-c3ccccc3)c2C)ccc1CNC1CCCCC1NC(C)=O (stereo not drawn) [Compound 42] | pIC50 | 5.96 |
| Cc1cc(CN2CCC[C@H](O)[C@@H]2C(N)=O)ccc1/C=C/c1cccc(-c2ccccc2)c1C [Compound 26] | pIC50 | 5.89 |

So for COc1cc(/C=C/c2cccc(-c3ccccc3)c2C)cc(OC)c1CN[C@](C)(CO)C(=O)O [Compound 46] , the logged pIC50 turned out to be 7.32

###

Target: PD-1/PD-L1 (Homo sapiens (Human), UniProt Q9NZQ7)
Assay: Homogeneous Time-Resolved Fluorescence (HTRF) binding assay
Settings: CisBio kit #64CUS000C-1, read-out: IC50 of compounds binding to PD-1/PD-L1
Overview of reported pIC50 across a group of molecules:
# pIC50 is unitless: minus log10 of the molar concentration; print number only

| smilesRepresentation | assayedTarget | measuredResult |
| --- | --- | --- |
| COc1cc(/C=C/c2cccc(-c3ccccc3)c2C)cc(OC)c1CNCC(=O)O | PD-1/PD-L1 (Homo sapiens (Human), UniProt Q9NZQ7) | 7.00 |
| Cc1c(/C=C/c2ccc(CNCCO)cn2)cccc1-c1ccc2c(c1)OCCO2 | PD-1/PD-L1 (Homo sapiens (Human), UniProt Q9NZQ7) | 6.51 |

// switching to the query molecule
Per the records, this molecule ( Cc1ccc(CN[C@H](CO)C(=O)O)cc1/C=C/c1cccc(-c2ccccc2)c1C ) has pIC50 equal to 7.00

###

Target: PD-1/PD-L1 (Homo sapiens (Human))
Assay: Homogeneous Time-Resolved Fluorescence (HTRF) binding assay
Settings: CisBio kit #64CUS000C-1, read-out: IC50 of compounds binding to PD-1/PD-L1
measure: pIC50
// scale note: pIC50 = -log10(conc_M); give the bare number

Check out these entries, answers already filled in.
| molecule | measuredResult |
| --- | --- |
| COc1cc(/C=C/c2cncc(-c3ccccc3)c2C)cc(OC)c1CNC(C)(CO)C(=O)O (stereo not shown) | 5.70 |
| COc1ccc(-c2cccc(/C=C/c3cc(OC)c(CNC(C)(CO)C(=O)O)c(OC)c3)c2C)cc1 (stereo not shown) | 5.10 |

Now consider the entry below.
The recorded pIC50 for entry COc1cc(/C=C/c2cccc(-c3ccccc3)c2C)cc(OC)c1CN1CCCCC1(CO)C(=O)O (stereo not shown) equals 6.04

###

Target: PD-1/PD-L1 (Homo sapiens (Human), UniProt Q9NZQ7)
Assay: Homogeneous Time-Resolved Fluorescence (HTRF) binding assay
Conditions: CisBio kit #64CUS000C-1, read-out: IC50 of compounds binding to PD-1/PD-L1
pIC50: −log10 of the molar value.
Consider the following molecules and their measured pIC50 readings.

Some molecules with known pIC50 results, for comparison:
| molecule | pIC50 |
| --- | --- |
| COC(=O)c1ccc(-c2cccc(/C=C/c3cc(OC)c(CNC(C)(CO)C(=O)O)c(OC)c3)c2C)cc1 (stereo not drawn) [Compound 49] | < 5.00 |
| COc1cc(/C=C/c2cccc(-c3ccccc3)c2C)cc(OC)c1CNc1ccc(O)c(C(=O)O)c1 [Compound 59] | < 5.00 |

# ---- query molecule ----
For record COc1cc(/C=C/c2cccc(-c3ccccc3)c2C)cc(OC)c1CNc1ccc(C(=O)O)c(O)c1 [Compound 58] the listed pIC50 is < 5.00
